subject-of-test: T1, Cynomolgus TCR(AEA41865/AEA41866)-zipper protein (cynomolgus monkey)
T1 construct: also called cyTCR-zipper protein; cynoTCR zipper
T1 TCR alpha: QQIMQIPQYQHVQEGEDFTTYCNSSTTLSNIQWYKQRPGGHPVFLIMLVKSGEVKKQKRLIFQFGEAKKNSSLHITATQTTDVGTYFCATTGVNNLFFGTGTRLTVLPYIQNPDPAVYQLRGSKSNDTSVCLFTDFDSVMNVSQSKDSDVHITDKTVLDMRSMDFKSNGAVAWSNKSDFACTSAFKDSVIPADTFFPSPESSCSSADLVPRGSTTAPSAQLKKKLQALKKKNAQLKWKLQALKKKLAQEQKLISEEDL
T1 TCR beta: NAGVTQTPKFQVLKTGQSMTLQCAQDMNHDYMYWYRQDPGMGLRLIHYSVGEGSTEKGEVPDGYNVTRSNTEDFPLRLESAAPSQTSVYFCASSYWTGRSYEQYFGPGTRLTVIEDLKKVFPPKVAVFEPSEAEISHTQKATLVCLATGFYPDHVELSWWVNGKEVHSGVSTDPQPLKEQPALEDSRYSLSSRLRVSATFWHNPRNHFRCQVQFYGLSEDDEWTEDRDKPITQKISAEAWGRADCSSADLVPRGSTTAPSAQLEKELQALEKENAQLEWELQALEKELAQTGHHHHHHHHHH
experiment-summary: ratio higher/lower kd on huTCR- and cyTCR-zipper (SPR)
metric-name: gap in off-rate human vs cyno (fold)

# binder, units-label, gap in off-rate human vs cyno
rows = [
    ("T017000569 (VHH) VHH: EVQLVESGGGVVQPGGSLRLSCVASGDVHKLNFLGWYRQAPGKEREKVAHISIGDQTDYADSAKGRFTISRDESKNMVYLQMNSLRPEDTALYFCRAMSRIWPYDYWGQGTLVTVSS", "fold", 9),
]

(1) T017000390 (VHH) VHH: EVQLVESGGGVVQPGGSLRLSCVASWDVHQINFLGWYRQAPGKEREKVAHISIGDQTDYADSAKGRFTISRDESKNMVYLQMNSLRPEDTALYFCRAMSKIWPYDYWGQGTLVTVSS
(2) T017000613 (VHH) VHH: EVQLVESGGGVVQPGGSLRLSCVASWDVHKINFYGWYRQAPGKEREKVAHISIGDQTDYADSAKGRFTISRDESKNMVYLQMNSLRPEDTALYFCRALSKIWPYDYWGQGTLVTVSS
(3) T017000468 (VHH) VHH: EVQLVESGGGVVQPGGSLRLSCVASGSVHKINFYGWYRQAPGKEREKVAHISIGDQTDYADSAKGRFTISRDESKNMVYLQMNSLRPEDTALYFCRAFSRIWPYDYWGQGTLVTVSS
Highest gap in off-rate human vs cyno first, then in falling order down to the smallest. Output the labels ranked as instructed. 3, 1, 2
